test method notes: E. coli DRC41 culture turbidity changes, primary screen, E. coli filamentation inducer project, strain DRC41, OD650, 48 h (AID 1152);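 further: E. coli MC1000 strain DRC41 lacking acrAB efflux pump and sulA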
condition label: E. coli DRC41 (acrAB sulA), higher = more signal, called active from +8 up or from −8 down
Calls of active or inactive are those of the source.
We begin with a simple list: items and their reported z-score.

Examples from the recorded data:
• CCN(CC)c1ccc(N2CC=CC34O[C@@H]5C=CCOC(=O)[C@@H]5[C@H]3C(=O)N(CCCO)[C@@H]4C2=O)cc1 (stereo partly drawn) = 1.33 (inactive)
• COC(=O)[C@@]1(Cc2ccc(F)cc2)[C@H]2c3cc(C(=O)N(C)C)n(CCn4cc([N+](=O)[O-])nc4C)c3C[C@H]2CN1C(=O)c1ccccc1 = -2.34 (inactive)

Query: Would you kindly share the measured z-score for C=CCOC(=O)[C@H]1[C@@H]2C(=O)O[C@@H](c3ccccc3)[C@@H](c3ccccc3)N2[C@@H](c2ccc(OCCOC(=O)[C@@H]3C[C@@H]4C(=O)N[C@@H](CC(C)C)C(=O)N4[C@@H]3c3ccc(O)cc3)cc2)[C@]12C(=O)Nc1ccc(I)cc12 ?
Reply: 0.833 (inactive)

The reported numbers originate from PubChem BioAssay.
